# target_desc: SmDAT (Schistosoma mansoni)
# protocol: Transport inhibition constants, SmDAT
# Format: cell-based
measurement_name: pKi
Recall that pKi is obtained by taking minus log10 of the concentration measured in molar.

Query :: Write pKi of CC(N)Cc1ccccc1 (stereo not shown) ; system used: SmDAT (Schistosoma mansoni)
Result :: 5.00

----------
# target_desc: SmDAT (Schistosoma mansoni)
# protocol: Transport inhibition constants, SmDAT
# Format: cell-based
# test_parameters: read-out: Ki transport inhibition SmDAT
measurement_name: pKi
Recall that pKi is obtained by taking minus log10 of the concentration measured in molar.

See these solved cases before continuing.
molecule	observed_measurement
CC(NC(C)(C)C)C(=O)c1cccc(Cl)c1 (stereo not drawn) [Bupropion]	3.62
COC(=O)[C@H]1[C@@H](OC(=O)c2ccccc2)C[C@@H]2CC[C@H]1N2C [Cocaine]	4.53

Query :: Specify pKi for CN(C)CCCC1(c2ccc(F)cc2)OCc2cc(C#N)ccc21 (stereo not drawn) [Citalopram] and stop.
Result :: 4.30

----------
# target_desc: hSERT 112C mutant (Homo sapiens, UniProt P31645, N112C)
# Construct: The templates were full-length and nontagged human SERT in pcdna3.1; COS-7, HEK293 or MDCK (uptake)
# protocol: Basal/leak [3H]-serotonin efflux in COS-7 cells, 112C mutant
# Protocol: COS-7 cells were maintained under the same conditions as above. Efflux experiments were performed 2 days after cell transfection with hSERT or empty vector and plating of the cells in 24-well plates. Cells were washed with room temperature PBS-CM and then loaded with 50 nM [^3H]-serotonin for 1 h. […] After incubation, the supernatant was collected, liquid scintillation fluid added, and the samples counted (Beckman LS-6500 Multi-purpose Scintillation Counter; Beckman Coulter, Brea, Calif.). […]
measurement_name: IC50

Query :: Specify IC50 for CN(C)c1ccc(C(C(=O)NCc2ccccc2)N(Cc2cccnc2)C(=O)c2snc(C(N)=O)c2N)cc1 (stereo not shown) [ATM7] and stop.
Result :: 0.037 µM

----------
# target_desc: UniProt Q3I1M7
# Sequence (Q3I1M7 entry or part of it): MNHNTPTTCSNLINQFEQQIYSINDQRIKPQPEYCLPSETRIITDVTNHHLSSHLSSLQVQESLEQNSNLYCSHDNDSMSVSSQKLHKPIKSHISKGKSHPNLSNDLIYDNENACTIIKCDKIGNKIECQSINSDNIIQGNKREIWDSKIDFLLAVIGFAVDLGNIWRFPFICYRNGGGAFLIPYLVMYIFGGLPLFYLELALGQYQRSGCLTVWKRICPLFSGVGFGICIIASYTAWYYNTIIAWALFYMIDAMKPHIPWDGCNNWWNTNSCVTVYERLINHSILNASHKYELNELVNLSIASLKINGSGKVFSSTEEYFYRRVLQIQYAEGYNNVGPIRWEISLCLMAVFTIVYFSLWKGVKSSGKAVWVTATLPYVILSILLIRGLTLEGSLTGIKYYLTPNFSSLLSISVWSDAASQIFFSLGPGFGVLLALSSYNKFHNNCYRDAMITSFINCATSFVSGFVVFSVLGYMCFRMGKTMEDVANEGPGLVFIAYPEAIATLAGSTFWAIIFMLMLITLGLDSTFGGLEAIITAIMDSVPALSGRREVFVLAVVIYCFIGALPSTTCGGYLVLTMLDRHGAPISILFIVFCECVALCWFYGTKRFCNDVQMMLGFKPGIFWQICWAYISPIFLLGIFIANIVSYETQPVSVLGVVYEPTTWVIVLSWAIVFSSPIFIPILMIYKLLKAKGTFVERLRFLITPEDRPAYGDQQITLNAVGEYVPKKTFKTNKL
measurement_name: Ki (µM)
Write the answer as a number in µM, unit excluded.

Query :: Write Ki of CNC(C)Cc1ccc2c(c1)OCO2 (racemic) [(±)MDMA, methylenedioxy-methamphetamine] ; system used: UniProt Q3I1M7
Result :: 313

Query :: Write Ki of COC(=O)[C@H]1[C@@H](OC(=O)c2ccccc2)C[C@@H]2CC[C@H]1N2C ; system used: UniProt Q3I1M7
Result :: 35.4

Query :: Write Ki of CC(N)Cc1ccccc1 (stereo not shown) ; system used: UniProt Q3I1M7
Result :: 393

Query :: Write Ki of CN(C)CCCN1c2ccccc2CCc2ccccc21 ; system used: UniProt Q3I1M7
Result :: 0.3
